The measured values listed here are drawn from paper PMC10786891.

Recorded Kd, one value per entry.
- Assay system: T1, EsCas13d, nuclease-dead (Eubacterium siraeum, UniProt B0MS50, R295A;H300A;R849A;H854A)
- T1 sequence: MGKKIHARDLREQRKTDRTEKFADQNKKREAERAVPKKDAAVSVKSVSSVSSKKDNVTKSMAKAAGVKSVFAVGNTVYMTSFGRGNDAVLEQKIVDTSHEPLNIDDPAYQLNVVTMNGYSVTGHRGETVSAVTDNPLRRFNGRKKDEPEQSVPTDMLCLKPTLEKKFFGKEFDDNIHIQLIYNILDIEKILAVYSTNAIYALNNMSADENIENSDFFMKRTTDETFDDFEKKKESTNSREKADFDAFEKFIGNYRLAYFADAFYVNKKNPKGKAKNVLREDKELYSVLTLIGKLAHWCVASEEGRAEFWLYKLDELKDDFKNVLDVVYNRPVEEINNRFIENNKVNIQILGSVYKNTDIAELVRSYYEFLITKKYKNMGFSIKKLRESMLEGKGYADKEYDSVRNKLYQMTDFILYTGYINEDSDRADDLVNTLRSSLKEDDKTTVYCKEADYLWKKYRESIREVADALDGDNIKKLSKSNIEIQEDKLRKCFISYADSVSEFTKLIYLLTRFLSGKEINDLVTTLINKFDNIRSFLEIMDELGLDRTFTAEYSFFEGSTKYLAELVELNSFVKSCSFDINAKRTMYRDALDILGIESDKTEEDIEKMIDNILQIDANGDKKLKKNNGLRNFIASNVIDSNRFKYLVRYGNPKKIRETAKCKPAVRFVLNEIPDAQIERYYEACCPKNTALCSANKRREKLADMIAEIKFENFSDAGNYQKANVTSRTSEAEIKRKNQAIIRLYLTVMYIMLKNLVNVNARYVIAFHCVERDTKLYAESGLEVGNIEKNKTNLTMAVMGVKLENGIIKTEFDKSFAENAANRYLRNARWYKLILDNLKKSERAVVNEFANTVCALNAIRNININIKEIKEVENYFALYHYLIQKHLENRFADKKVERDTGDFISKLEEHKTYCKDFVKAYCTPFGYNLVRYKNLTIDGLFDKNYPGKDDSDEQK
- Assay remarks: crRNA (strand 1, pre-loaded); Mg2+; 40 mM Tris-HCl pH 7.5, 150 mM NaCl, 6 mM MgCl2, 1 mM DTT, 0.1% Tween-20, 0.2 mg/ml BSA; 25 C; 10 min per concentration, then washed
- Condition summary: tags: His6-TwinStrep-SUMO cleaved; N-terminal SNAP kept (SNAP-Surface 488); label: 3' end held by stalled T7 RNA polymerase
State just the number; it will be interpreted in nM.

Worked set:
Kd reported for this binder target 1 A16C,A20U (mixed) RNA 1: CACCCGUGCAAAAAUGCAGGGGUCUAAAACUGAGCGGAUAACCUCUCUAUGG RNA 2: GGGAAUGGAUCCACAUCUACGAAUUCGUACCUUAGCGAGGUUAUCCGCUCACCGAGAUCGGAAGAGCACACGU : 85

Kd reported for this binder target 1 insG 3' of 14,insG 3' of 10 (mixed) RNA 1: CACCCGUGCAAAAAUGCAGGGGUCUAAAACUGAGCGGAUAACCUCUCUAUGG RNA 2: GGGAAUGGAUCCACAUCUACGAAUUCGUACCAUAGAGAGGGUUGAUCCGCUCACCGAGAUCGGAAGAGCACACGU : 16.7

Kd reported for this binder target 1 U8A,U11G (mixed) RNA 1: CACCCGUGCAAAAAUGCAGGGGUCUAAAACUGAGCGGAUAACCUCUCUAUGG RNA 2: GGGAAUGGAUCCACAUCUACGAAUUCGUACCAUAGAGAGGGUAACCGCUCACCGAGAUCGGAAGAGCACACGU : 12.7

Others:
Kd reported for this binder target 1 insC 3' of 8,insG 3' of 2 (mixed) RNA 1: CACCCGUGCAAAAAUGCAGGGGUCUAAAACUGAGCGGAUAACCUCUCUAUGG RNA 2: GGGAAUGGAUCCACAUCUACGAAUUCGUACCAUAGAGAGGUUAUCCCGCUCGACCGAGAUCGGAAGAGCACACGU : 21

Kd reported for this binder target 2 MT 5'PFS UAU 3'PFS AGA (mixed) RNA 1: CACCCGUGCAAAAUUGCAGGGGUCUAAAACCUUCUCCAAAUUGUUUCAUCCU RNA 2: GGGAAUGGAUCCACAUCUACGAAUUCUAUAGGAUGAAACAAUUUGGAGAAGAGAAGAUCGGAAGAGCACACGU : 21.1

Kd reported for this binder target 1 insG 3' of 21,insU 3' of 2 (mixed) RNA 1: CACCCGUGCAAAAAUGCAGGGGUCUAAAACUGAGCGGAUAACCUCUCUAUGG RNA 2: GGGAAUGGAUCCACAUCUACGAAUUCGUACCGAUAGAGAGGUUAUCCGCUCUACCGAGAUCGGAAGAGCACACGU : 70

Kd reported for this binder target 2 MT 5'PFS GCA 3'PFS UAC (mixed) RNA 1: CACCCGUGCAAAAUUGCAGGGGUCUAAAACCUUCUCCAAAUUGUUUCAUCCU RNA 2: GGGAAUGGAUCCACAUCUACGAAUUCGCAAGGAUGAAACAAUUUGGAGAAGUACAGAUCGGAAGAGCACACGU : 12.3

Kd reported for this binder target 1 C6G,U19C (mixed) RNA 1: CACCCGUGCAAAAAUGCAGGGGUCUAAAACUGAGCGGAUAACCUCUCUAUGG RNA 2: GGGAAUGGAUCCACAUCUACGAAUUCGUACCACAGAGAGGUUAUCGGCUCACCGAGAUCGGAAGAGCACACGU : 29.8
